Test system: SW-620
ASSAY PROCEDURE: NCI tumour cell line growth inhibition, 48 h
Activity calls are given as the source filed them. Cut-off read from the data, not from the text of the source: active = GI50 up to about 1.1 µM and inactive = higher.
OUTCOME MEASURE: GI50

Worked examples follow.
# MOLECULE, READOUT VALUE
data = [
    ("CC(=O)NC1C(OC(C)C(=O)NC(C)C(=O)NC(CCC(=O)NCCCCCNc2ccc([N+](=O)[O-])c3[nH]c4ccccc4c(=O)c23)C(N)=O)C(O)C(CO)OC1(C)OCc1ccccc1 (centres undefined)", "67.9 µM (inactive)"),
    ("O=c1[nH][nH]c(=O)[nH]1", "> 100 µM (inactive)"),
    ("Cc1ccc(S(=O)(=O)C(CC(NC=O)S(=O)(=O)c2ccc(C)cc2)NC=O)cc1 (centres undefined)", "> 100 µM (inactive)"),
    ("CC(=O)NC1=C(N)C(=O)c2ccccc2C1=O", "14.9 µM (inactive)"),
]

Q: Using the record for CC(=O)n1cc(C2CC23N=C(c2ccccc2)OC3=O)c2ccccc21 (centres undefined) , report its GI50.
A: 19.8 µM (inactive)

Q: Request the reported GI50 associated with CCOC(=O)/C(=C/c1cccc(C#N)c1)N(CC)CC
A: > 100 µM (inactive)

Q: If you can, please state the reported GI50 value of CN1CC2=C(OC(N)=C(C#N)C2c2cccs2)/C(=C/c2cccs2)C1 (centres undefined) .
A: 42.8 µM (inactive)

Q: Need GI50 of Cc1cc(-c2ccc(/N=N/c3ccc4c(S(=O)(=O)O)cc(S(=O)(=O)O)c(N)c4c3O)c(C)c2)ccc1/N=N/c1ccc2c(S(=O)(=O)O)cc(S(=O)(=O)O)c(N)c2c1O [EVANS BLUE FREE ACID] , thanks.
A: > 100 µM (inactive)

Q: Sample Clc1ccc(Cc2nc3ccccc3o2)cc1 — what was its GI50?
A: > 100 µM (inactive)

---

Tested on: UACC-257
ASSAY PROCEDURE: NCI tumour cell line growth inhibition, 48 h
Active and inactive are the calls of the source. Cut-off read from the data, not from the text of the source: active = GI50 up to about 1.1 µM and inactive = higher.
The compounds listed here are annotated with their GI50.

# COMPOUND, READOUT VALUE
data = [
    ("COc1cc2c([C@@H](OC(=O)c3ccccc3)c3ccc4c(c3)OCO4)nccc2c(OC)c1OC", "38.4 µM (inactive)"),
]

Q: Given the entry CCOC(=O)C1=C(C(=O)OCC)SC2(S1)C(C(=O)OCC)=C(C(=O)OCC)Sc1c2ssc1=O , report its measured GI50.
A: 1.6 µM (inactive)

Q: Recorded GI50 of CCCNC(=O)N(C)C(=O)N1N=C(c2ccccc2)C1c1ccccc1 (stereo not drawn) , please.
A: 82.6 µM (inactive)

Q: Item under review: CCOC(=O)CCC(NC(=O)OCc1ccccc1)C(=O)NC(CCC(=O)OCC)C(=O)NC(CCC(=O)OCC)C(=O)NC(CCC(=O)OCC)C(=O)NC(CCC(=O)OCC)C(=O)OCC (stereo not drawn) . Reported GI50?
A: > 100 µM (inactive)

Q: Report GI50 for O=C(O)C1=CNC(C(=O)O)=NN1 please.
A: > 100 µM (inactive)

Q: Data request, read-out GI50, for CCc1ccc(Nc2ccc([N+](=O)[O-])cc2[N+](=O)[O-])cc1
A: 67.8 µM (inactive)

Q: Requested read-out: GI50. Entry: C=C(C)[C@H]1C=C[C@@H](OC(C)=O)[C@@]2(COC(C)=O)[C@H](OC(=O)CCC)[C@H]3[C@@H](OC(C)=O)[C@@H](C)C[C@]3(O)C(=O)[C@@](C)(OC(C)=O)[C@H]12
A: 39.4 µM (inactive)

Q: Given the compound O=C(O)C1=Cc2cccc3cccc(c23)C1=O , what is its reported GI50?
A: > 100 µM (inactive)

---

Tested on: T47D
ASSAY PROCEDURE: NCI tumour cell line growth inhibition, 48 h
Calls of active or inactive are those of the source. Rule as the data show it: active = GI50 up to about 1.1 µM and inactive = higher.
Classes to choose from: active, inactive

Sample answers from the record:
# COMPOUND, STUDY SYSTEM, CLASS LABEL
records = [
    ("COc1ccc(Cl)cc1NC(=O)O/N=C(\\Cl)C(C)C", "T47D", "inactive"),
    ("COc1ccc(-c2c3c(nc4nc(SCCc5ccccc5)nc(N)c24)CCCC3)cc1OC", "T47D", "inactive"),
    ("O=C1Cc2cn[nH]c2-c2ccccc2N1", "T47D", "inactive"),
    ("CCOC(=O)c1nc2cc(C(F)(F)F)ccc2nc1Nc1ccc(OC)cc1", "T47D", "inactive"),
    ("CCOC(=O)c1c(C)n(-c2ccc(C)cc2)c(=O)c2ccccc2c(=O)c2c(=O)ccc(=O)c1=2", "T47D", "inactive"),
    ("CC(Cc1ccc(O)cc1)NCC(O)c1ccc(O)c(O)c1 (centres undefined)", "T47D", "inactive"),
    ("CC(=O)NC1C(OC(C)C(=O)NC(C)C(=O)NC(CCC(=O)NCCCCCNc2ccc([N+](=O)[O-])c3[nH]c4ccccc4c(=O)c23)C(N)=O)C(O)C(CO)OC1(C)OCc1ccccc1 (centres undefined)", "T47D", "inactive"),
    ("CCOC(=O)c1c(N=C(S)Nc2ccccc2)sc2c1CCN(C)C2", "T47D", "inactive"),
    ("Cc1ccc(OCCn2cc(Nc3ccccc3)c(=O)n(CCOc3ccc(C)cc3)c2=O)cc1", "T47D", "inactive"),
    ("O=C1c2ccccc2C(=O)N1/N=C1/SC(=N\\c2ccccc2)/C(=N/c2ccccc2)N1c1ccccc1", "T47D", "inactive"),
]

Q: Could you kindly confirm the outcome this assay logged for Cc1c2oc3c(C)cnc(C(=O)NC4C(=O)NC(C(C)C)C(=O)N5CCCC5C(=O)N(C)CC(=O)N(C)C(C(C)C)C(=O)OC4C)c3nc-2c(C(=O)NC2C(=O)NC(C(C)C)C(=O)N3CCCC3C(=O)N(C)CC(=O)N(C)C(C(C)C)C(=O)OC2C)c(N)c1=O (centres undefined) ?
A: active

Q: Status in this test for COc1cc(CC2C(=O)OCC2Cc2ccc(OC)c(OC)c2)ccc1O (centres undefined) ?
A: inactive

Q: Fill in: this test's call for O=C1CCCc2cc3c(cc21)CC1(C3)Cc2ccc3c(c2C1)C(=O)CCC3 (centres undefined) is ___
A: inactive

Q: Which outcome did this test record for the compound O=c1[nH]c(Br)nc2[nH]nnc12 ?
A: inactive

Q: Assay result, entry Cc1cccc2c1CC1(Cc3c(C)cccc3C1=O)C2=O — outcome?
A: inactive

Q: Call for entry CC12c3c4cc(Br)cc3Oc3cc(Br)cc(c31)Oc1cc(Br)cc(c12)O4 :
A: inactive

Q: Which outcome did this test record for the compound CC(C)=CCC/C(C)=C/CC/C(C)=C/[C@@H]1[C@@H](CO)[C@]1(C)CC/C=C(\C)CCC=C(C)C ?
A: inactive

Q: Query: recorded result category for COc1cccc(CSCC(=O)O)c1 in this test
A: inactive

Q: Assay result, entry Fc1cccc(F)c1C1SCc2nc3cc(Cl)c(Cl)cc3n21 (centres undefined) — outcome?
A: inactive

---

Tested on: NCI-H226
ASSAY PROCEDURE: NCI tumour cell line growth inhibition, 48 h
Calls of active or inactive are those of the source. Cut-off read from the data, not from the text of the source: active = GI50 up to about 1.1 µM and inactive = higher.
A correct response names exactly one class from true (1) (active), false (0) (inactive)

Please review the entries below; each comes with its answer.
# COMPOUND, CLASS LABEL
records = [
    ("CCOC(=O)c1[nH]c(Br)c(-c2ccc(OC)c(OC)c2)c1Br", "true (1)"),
    ("CC(=O)O[C@H]1CCC2[C@@H]3CCC4c5nonc5CC[C@]4(C)C3CC[C@@]21C (stereo not given in full)", "false (0)"),
    ("CCN1CCC(O)(c2ccc(Cl)c(Cl)c2)C(C(=O)c2ccc(Cl)c(Cl)c2)C1 (stereo not given)", "false (0)"),
    ("COc1cc(CNCc2cc(OC)c(OC)c(OC)c2)cc(OC)c1OC", "false (0)"),
    ("Cn1cnc([N+](=O)[O-])c1Sc1nc2cc(Cl)c(F)cc2[nH]1", "false (0)"),
]

Q: What call does the record list for Cn1cnc([N+](=O)[O-])c1Sc1nnc(C(F)(F)F)n1C ?
A: false (0)

Q: What outcome does the record of this test show for O=[N+]([O-])c1cccnc1NCC1(CO)CCCC1 ?
A: false (0)

Q: Which outcome was entered for the compound CC(C)=CCC/C(C)=C/CC/C(C)=C/[C@@H]1[C@@H](CO)[C@]1(C)CC/C=C(\C)CCC=C(C)C in this test?
A: false (0)

Q: Which outcome was assigned to CCc1ccc(Nc2ccc([N+](=O)[O-])cc2[N+](=O)[O-])cc1 in this test?
A: false (0)

Q: How was CCOC(=O)c1sc2c(c1OC(=O)c1ccccc1)c(=O)n(-c1ccccc1)c(=S)n2-c1ccccc1 classified in this test?
A: false (0)
